Recorded measurements of Emax at 0.1 µM, one per entry
Molecular target: α2-GABAA receptor (Homo sapiens, UniProt P18507+P47869)
Construct: expressed in transfected cells
Sequence (P47869 29-451): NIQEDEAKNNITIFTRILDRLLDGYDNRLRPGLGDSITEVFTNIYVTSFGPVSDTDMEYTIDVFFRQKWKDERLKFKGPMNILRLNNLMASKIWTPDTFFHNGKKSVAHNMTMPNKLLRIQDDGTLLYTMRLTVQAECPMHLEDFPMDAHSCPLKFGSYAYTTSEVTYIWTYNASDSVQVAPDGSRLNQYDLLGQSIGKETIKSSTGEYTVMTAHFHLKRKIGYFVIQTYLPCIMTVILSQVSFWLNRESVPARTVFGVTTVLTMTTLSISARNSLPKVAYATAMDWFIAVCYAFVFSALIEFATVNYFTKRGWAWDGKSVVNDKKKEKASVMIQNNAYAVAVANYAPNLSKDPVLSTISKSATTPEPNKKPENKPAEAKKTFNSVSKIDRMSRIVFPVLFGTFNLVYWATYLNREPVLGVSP
Sequence (P18507 40-467 isoform P18507-1 limits assumed): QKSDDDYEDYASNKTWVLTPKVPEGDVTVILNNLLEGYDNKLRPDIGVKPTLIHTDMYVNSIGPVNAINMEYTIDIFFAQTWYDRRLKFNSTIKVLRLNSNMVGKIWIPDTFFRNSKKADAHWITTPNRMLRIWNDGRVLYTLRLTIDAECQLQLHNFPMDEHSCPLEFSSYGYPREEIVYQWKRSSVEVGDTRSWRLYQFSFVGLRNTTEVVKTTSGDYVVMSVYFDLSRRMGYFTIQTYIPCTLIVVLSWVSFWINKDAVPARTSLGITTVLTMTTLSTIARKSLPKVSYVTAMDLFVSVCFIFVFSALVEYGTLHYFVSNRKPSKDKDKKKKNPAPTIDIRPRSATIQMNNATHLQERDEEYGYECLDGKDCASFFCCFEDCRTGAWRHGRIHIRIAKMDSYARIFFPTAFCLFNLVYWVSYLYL
Sequence (P28472 26-473 partner): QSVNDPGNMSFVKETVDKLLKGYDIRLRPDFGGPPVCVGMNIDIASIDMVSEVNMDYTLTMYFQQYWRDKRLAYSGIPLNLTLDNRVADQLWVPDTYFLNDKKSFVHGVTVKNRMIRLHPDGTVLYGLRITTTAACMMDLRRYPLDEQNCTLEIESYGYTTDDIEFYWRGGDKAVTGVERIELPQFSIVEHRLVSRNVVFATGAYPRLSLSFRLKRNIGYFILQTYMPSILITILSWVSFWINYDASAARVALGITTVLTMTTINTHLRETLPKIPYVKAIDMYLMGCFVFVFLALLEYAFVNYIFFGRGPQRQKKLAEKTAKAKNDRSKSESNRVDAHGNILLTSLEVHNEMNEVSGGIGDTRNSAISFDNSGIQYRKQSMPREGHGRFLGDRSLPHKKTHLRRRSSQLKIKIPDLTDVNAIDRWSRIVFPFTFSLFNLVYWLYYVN
Experiment: Whole-cell patch-clamp electrophysiology, positive allosteric modulatory activity in α2-GABAAR-HEK293 cells
Format: cell-based
Conditions: compound 100 nM; GABA 0.10 to 0.11 µM (approximately EC7-8); normalized to reference compound CVL-865 (= 100%); read-out: α2-GABAAR Positive allosteric modulatory activity
measured-quantity: Emax at 0.1 µM (%)

1) CCCNC(=O)c1nc2c(-c3c(OC)ccc4ccoc34)cccn2c1N [Example 103]
87
2) COc1cccc(F)c1-c1cccn2c(N)c(C(=O)Nc3cnn(C)c3)nc12 [Example 15]
61
3) CCCNC(=O)c1nc2c(-c3cc(C4CC4)ccc3OC)cccn2c1N [Example 68]
92
4) C#CCNC(=O)c1nc2c(-c3c(F)cccc3OC)cccn2c1N [Example 31]
26
5) CCCNC(=O)c1nc2c(-c3cnoc3C)cccn2c1N [Example 141]
44
6) COc1cccc(F)c1-c1cccn2c(N)c(C(=O)NC3CC(F)(F)C3)nc12 [Example 9]
52
7) CCCNC(=O)c1nc2c(-c3cnccc3OC)cccn2c1N [Example 85]
100
8) COc1cccc(F)c1-c1cccn2c(N)c(C(=O)NC3CCCC3)nc12 [Example 12]
32
9) CCCNC(=O)c1nc2c(-c3c(F)cccc3OC)c(C)ccn2c1N [Example 132]
48
10) COc1ccc(C)cc1-c1cccn2c(N)c(C(=O)NC3CC(C)C3)nc12 (stereo not shown) [Example 33]
155
11) COc1cccc(F)c1-c1cccn2c(N)c(C(=O)Nc3ccccn3)nc12 [Example 14]
54
12) CCCNC(=O)c1nc2c(-c3cccc(N4CCOC4=O)c3)cccn2c1N [Example 41]
30
13) CCCNC(=O)c1nc2c(-c3c(Cl)cccc3OC)cccn2c1N [Example 72]
44
14) CCCNC(=O)c1nc2c(-c3c(F)cccc3OC)cccn2c1N [Example 3]
105
15) CCCNC(=O)c1nc2c(-c3cccnc3C)cccn2c1N [Example 142]
45
16) CCCNC(=O)c1nc2c(-c3cc(-c4cnnc5c4ncn5CC)ccc3OC)cccn2c1N [Example 71]
130
17) CCCNC(=O)c1nc2c(-c3cc(C(F)(F)F)ccc3OC)cccn2c1N [Example 58]
103
18) CCCNC(=O)c1nc2c(-c3cccc(CCC#N)c3)cccn2c1N [Example 37]
105
19) CCCNC(=O)c1nc2c(-c3cc4cccnc4cc3OC)cccn2c1N [Example 97]
52
